# testDetails: Apparent permeability of a compound in human Caco-2 cells
# Assay type: ADME, cell-based
measuredParameter: Papp
Don't forget the unit after the value.

Reference set, count: 3
The compound listed as CC1CCN(C)c2c(F)cnc3cc(F)c(nc23)-n2c(=O)[nH]c3nccc(c32)O1 (stereo not given) has a reported Papp of 18 ×10⁻⁶ cm/s

The compound listed as CC1CCC(C)n2ccc(=O)c3cc(F)c(nc32)-n2c(=O)[nH]c3nccc(c32)O1 (stereo not given) has a reported Papp of 2.1 ×10⁻⁶ cm/s

The compound listed as CC1(C)NC(=O)c2ccc3cc2N1CCCCOc1ccnc2[nH]c(=O)n-3c12 has a reported Papp of 0.7 ×10⁻⁶ cm/s

Others:
The compound listed as CN1CCCCOc2ccnc3[nH]c(=O)n(c23)-c2ccc(C(N)=O)c1n2 has a reported Papp of 2.2 ×10⁻⁶ cm/s

The compound listed as CC1CCCOc2cccc(n2)-n2c(=O)[nH]c3nccc(c32)O1 (stereo not given) has a reported Papp of 31 ×10⁻⁶ cm/s

The compound listed as CC1(C)NC(=O)c2ccc3nc2N1CCCOc1ccnc2[nH]c(=O)n-3c12 has a reported Papp of 1.3 ×10⁻⁶ cm/s

The compound listed as CC1CCOc2ccnc3ccc(nc23)-n2c(=O)[nH]c3nccc(c32)O1 (stereo not given) has a reported Papp of 26 ×10⁻⁶ cm/s

The compound listed as O=c1[nH]c2nccc3c2n1-c1cccc(n1)OCCCCO3 has a reported Papp of 15 ×10⁻⁶ cm/s

The compound listed as CC1CCCOc2ccnc3[nH]c(=O)n(c23)-c2cccc(n2)O1 (stereo not given) has a reported Papp of 32 ×10⁻⁶ cm/s

The compound listed as CC1(C)NC(=O)c2ccc3cc2N1CCCOc1ccnc2[nH]c(=O)n-3c12 has a reported Papp of 0.3 ×10⁻⁶ cm/s

Entry source: ChEMBL document CHEMBL5625263
